Measured Selectivity index (SI) HT29 by item
# Tested on: HT29 (colon adenocarcinoma)
# test_details: SRB cytotoxicity assay, HT29
# Format: cell-based, human
# run_conditions: SI = EC50 (NIH 3T3)/EC50 (HT29)
Where a name gives a salt, the structure may show the parent alone.

{"compound": "C=C(C)C1CC[C@]2(C(=O)NCCOCCN)CC[C@]3(C)C(CCC4[C@@]5(C)CC[C@H](O)C(C)(C)C5CC[C@]43C)C12 (stereo partly shown)", "Selectivity index (SI) HT29": 0.80}
{"compound": "C=C(C)C1CC[C@]2(C(=O)NCCOCCN)CC[C@]3(C)C(CCC4[C@@]5(C)CC[C@H](OC(C)=O)C(C)(C)C5CC[C@]43C)C12 (stereo partly shown)", "Selectivity index (SI) HT29": 2.50}
{"compound": "CC(=O)O[C@H]1CC[C@@]2(C)C(CC[C@]3(C)C2CC=C2C4[C@@H](C)[C@H](C)CC[C@]4(C(=O)NCCN4CCNCC4)CC[C@]23C)C1(C)C (stereo partly shown)", "Selectivity index (SI) HT29": 1.22}
{"compound": "C[C@@H]1CC[C@]2(C(=O)NCCN(C)C)CC[C@]3(C)C(=CCC4[C@@]5(C)CC[C@H](O)C(C)(C)C5CC[C@]43C)C2[C@H]1C (stereo partly shown)", "Selectivity index (SI) HT29": 2.23}
{"compound": "C=C(C)C1CC[C@]2(C(=O)NCCN)CC[C@]3(C)C(CCC4[C@@]5(C)CC[C@H](O)C(C)(C)C5CC[C@]43C)C12 (stereo partly shown)", "Selectivity index (SI) HT29": 1.00}
{"compound": "C=C(C)C1CC[C@]2(C(=O)NCCCCN)CC[C@]3(C)C(CCC4[C@@]5(C)CC[C@H](OC(C)=O)C(C)(C)C5CC[C@]43C)C12 (stereo partly shown)", "Selectivity index (SI) HT29": 1.00}
{"compound": "C[C@@H]1CC[C@]2(C(=O)NCCCCN)CC[C@]3(C)C(=CCC4[C@@]5(C)CC[C@H](O)C(C)(C)C5CC[C@]43C)C2[C@H]1C (stereo partly shown)", "Selectivity index (SI) HT29": 2.67}
{"compound": "C[C@@H]1CC[C@]2(C(=O)NCCN)CC[C@]3(C)C(=CCC4[C@@]5(C)CC[C@H](O)C(C)(C)C5CC[C@]43C)C2[C@H]1C (stereo partly shown)", "Selectivity index (SI) HT29": 1.95}
{"compound": "C[C@H]1[C@H](C)CC[C@]2(C(=O)O)CC[C@]3(C)C(=CC[C@@H]4[C@@]5(C)CC[C@H](O)C(C)(C)[C@@H]5CC[C@]43C)[C@H]12", "Selectivity index (SI) HT29": 1.76}
{"compound": "COc1cccc2c1C(=O)c1c(O)c3c(c(O)c1C2=O)C[C@@](O)(C(=O)CO)C[C@@H]3O[C@H]1C[C@H](N)[C@H](O)[C@H](C)O1 [DRC, doxorubicin hydrochloride, reference compound]", "Selectivity index (SI) HT29": 0.07}
{"compound": "CC(=O)O[C@H]1CC[C@@]2(C)C(CC[C@]3(C)C2CC=C2C4[C@@H](C)[C@H](C)CC[C@]4(C(=O)NCCN4CCCCC4)CC[C@]23C)C1(C)C (stereo partly shown)", "Selectivity index (SI) HT29": 1.71}
{"compound": "C=C(C)C1CC[C@]2(C(=O)NCCN3CCNCC3)CC[C@]3(C)C(CCC4[C@@]5(C)CC[C@H](O)C(C)(C)C5CC[C@]43C)C12 (stereo partly shown)", "Selectivity index (SI) HT29": 1.00}
{"compound": "CC(=O)O[C@H]1CC[C@@]2(C)C(CC[C@]3(C)C2CC=C2C4[C@@H](C)[C@H](C)CC[C@]4(C(=O)NCCN(C)C)CC[C@]23C)C1(C)C (stereo partly shown)", "Selectivity index (SI) HT29": 1.09}
{"compound": "C[C@@H]1CC[C@]2(C(=O)NCCOCCN)CC[C@]3(C)C(=CCC4[C@@]5(C)CC[C@H](O)C(C)(C)C5CC[C@]43C)C2[C@H]1C (stereo partly shown)", "Selectivity index (SI) HT29": 2.42}
{"compound": "C=C(C)[C@@H]1CC[C@]2(C(=O)O)CC[C@]3(C)[C@H](CC[C@@H]4[C@@]5(C)CC[C@H](O)C(C)(C)[C@@H]5CC[C@]43C)[C@@H]12 [BA, betulinic acid, reference compound]", "Selectivity index (SI) HT29": 0.91}
{"compound": "C=C(C)C1CC[C@]2(C(=O)NCCN3CCCCC3)CC[C@]3(C)C(CCC4[C@@]5(C)CC[C@H](O)C(C)(C)C5CC[C@]43C)C12 (stereo partly shown)", "Selectivity index (SI) HT29": 1.00}
{"compound": "C[C@@H]1CC[C@]2(C(=O)NCCN3CCCC3)CC[C@]3(C)C(=CCC4[C@@]5(C)CC[C@H](O)C(C)(C)C5CC[C@]43C)C2[C@H]1C (stereo partly shown)", "Selectivity index (SI) HT29": 2.38}
{"compound": "C=C(C)C1CC[C@]2(C(=O)NCCN3CCCCC3)CC[C@]3(C)C(CCC4[C@@]5(C)CC[C@H](OC(C)=O)C(C)(C)C5CC[C@]43C)C12 (stereo partly shown)", "Selectivity index (SI) HT29": 1.50}
{"compound": "C=C(C)C1CC[C@]2(C(=O)NCCN)CC[C@]3(C)C(CCC4[C@@]5(C)CC[C@H](OC(C)=O)C(C)(C)C5CC[C@]43C)C12 (stereo partly shown)", "Selectivity index (SI) HT29": 1.40}

---

Property: Selectivity index (SI) 518A2; scope: individual molecules
# Tested on: 518A2 (melanoma)
# test_details: SRB cytotoxicity assay, 518A2
# Format: cell-based, human
# run_conditions: SI = EC50 (NIH 3T3)/EC50 (518A2)
attribute_measured: Selectivity index (SI) 518A2

{"molecule": "C=C(C)C1CC[C@]2(C(=O)NCCN)CC[C@]3(C)C(CCC4[C@@]5(C)CC[C@H](O)C(C)(C)C5CC[C@]43C)C12 (some centres unmarked)", "numeric_value": 1.00}
{"molecule": "C=C(C)C1CC[C@]2(C(=O)NCCN3CCNCC3)CC[C@]3(C)C(CCC4[C@@]5(C)CC[C@H](O)C(C)(C)C5CC[C@]43C)C12 (some centres unmarked)", "numeric_value": 0.89}
{"molecule": "CC(=O)O[C@H]1CC[C@@]2(C)C(CC[C@]3(C)C2CC=C2C4[C@@H](C)[C@H](C)CC[C@]4(C(=O)NCCOCCN)CC[C@]23C)C1(C)C (some centres unmarked)", "numeric_value": 0.89}
{"molecule": "CC(=O)O[C@H]1CC[C@@]2(C)C(CC[C@]3(C)C2CC=C2C4[C@@H](C)[C@H](C)CC[C@]4(C(=O)NCCN)CC[C@]23C)C1(C)C (some centres unmarked)", "numeric_value": 0.96}
{"molecule": "C[C@@H]1CC[C@]2(C(=O)NCCN3CCCCC3)CC[C@]3(C)C(=CCC4[C@@]5(C)CC[C@H](O)C(C)(C)C5CC[C@]43C)C2[C@H]1C (some centres unmarked)", "numeric_value": 0.28}

---

Each entry below carries its recorded Selectivity index (SI) A2780.
# System: A2780 (ovarian carcinoma)
# test_details: SRB cytotoxicity assay, A2780
# Format: cell-based, human
# run_conditions: SI = EC50 (NIH 3T3)/EC50 (A2780)
Where a name gives a salt, the structure may show the parent alone.

{"molecule": "C=C(C)C1CC[C@]2(C(=O)NCCN3CCCCC3)CC[C@]3(C)C(CCC4[C@@]5(C)CC[C@H](OC(C)=O)C(C)(C)C5CC[C@]43C)C12 (stereo partly shown)", "Selectivity index (SI) A2780": 0.75}
{"molecule": "COc1cccc2c1C(=O)c1c(O)c3c(c(O)c1C2=O)C[C@@](O)(C(=O)CO)C[C@@H]3O[C@H]1C[C@H](N)[C@H](O)[C@H](C)O1 [DRC, doxorubicin hydrochloride, reference compound]", "Selectivity index (SI) A2780": 6.00}
{"molecule": "C[C@H]1[C@H](C)CC[C@]2(C(=O)O)CC[C@]3(C)C(=CC[C@@H]4[C@@]5(C)CC[C@H](O)C(C)(C)[C@@H]5CC[C@]43C)[C@H]12", "Selectivity index (SI) A2780": 1.59}
{"molecule": "CC(=O)O[C@H]1CC[C@@]2(C)C(CC[C@]3(C)C2CC=C2C4[C@@H](C)[C@H](C)CC[C@]4(C(=O)NCCN(C)C)CC[C@]23C)C1(C)C (stereo partly shown)", "Selectivity index (SI) A2780": 1.03}
{"molecule": "C=C(C)C1CC[C@]2(C(=O)NCCN3CCCC3)CC[C@]3(C)C(CCC4[C@@]5(C)CC[C@H](O)C(C)(C)C5CC[C@]43C)C12 (stereo partly shown)", "Selectivity index (SI) A2780": 1.33}
{"molecule": "C[C@@H]1CC[C@]2(C(=O)NCCN3CCCC3)CC[C@]3(C)C(=CCC4[C@@]5(C)CC[C@H](O)C(C)(C)C5CC[C@]43C)C2[C@H]1C (stereo partly shown)", "Selectivity index (SI) A2780": 1.88}
{"molecule": "CC(=O)O[C@H]1CC[C@@]2(C)C(CC[C@]3(C)C2CC=C2C4[C@@H](C)[C@H](C)CC[C@]4(C(=O)NCCN4CCNCC4)CC[C@]23C)C1(C)C (stereo partly shown)", "Selectivity index (SI) A2780": 0.92}
{"molecule": "C=C(C)C1CC[C@]2(C(=O)NCCN3CCCCC3)CC[C@]3(C)C(CCC4[C@@]5(C)CC[C@H](O)C(C)(C)C5CC[C@]43C)C12 (stereo partly shown)", "Selectivity index (SI) A2780": 1.00}
{"molecule": "CC(=O)O[C@H]1CC[C@@]2(C)C(CC[C@]3(C)C2CC=C2C4[C@@H](C)[C@H](C)CC[C@]4(C(=O)NCCN)CC[C@]23C)C1(C)C (stereo partly shown)", "Selectivity index (SI) A2780": 1.13}
{"molecule": "C=C(C)C1CC[C@]2(C(=O)NCCN3CCCC3)CC[C@]3(C)C(CCC4[C@@]5(C)CC[C@H](OC(C)=O)C(C)(C)C5CC[C@]43C)C12 (stereo partly shown)", "Selectivity index (SI) A2780": 0.86}
{"molecule": "C[C@@H]1CC[C@]2(C(=O)NCCN)CC[C@]3(C)C(=CCC4[C@@]5(C)CC[C@H](O)C(C)(C)C5CC[C@]43C)C2[C@H]1C (stereo partly shown)", "Selectivity index (SI) A2780": 1.18}
{"molecule": "C=C(C)C1CC[C@]2(C(=O)NCCCCN)CC[C@]3(C)C(CCC4[C@@]5(C)CC[C@H](OC(C)=O)C(C)(C)C5CC[C@]43C)C12 (stereo partly shown)", "Selectivity index (SI) A2780": 0.55}
{"molecule": "CC(=O)O[C@H]1CC[C@@]2(C)C(CC[C@]3(C)C2CC=C2C4[C@@H](C)[C@H](C)CC[C@]4(C(=O)NCCCCN)CC[C@]23C)C1(C)C (stereo partly shown)", "Selectivity index (SI) A2780": 0.50}
{"molecule": "CC(=O)O[C@H]1CC[C@@]2(C)C(CC[C@]3(C)C2CC=C2C4[C@@H](C)[C@H](C)CC[C@]4(C(=O)NCCN4CCCCC4)CC[C@]23C)C1(C)C (stereo partly shown)", "Selectivity index (SI) A2780": 1.11}
{"molecule": "C=C(C)[C@@H]1CC[C@]2(C(=O)O)CC[C@]3(C)[C@H](CC[C@@H]4[C@@]5(C)CC[C@H](O)C(C)(C)[C@@H]5CC[C@]43C)[C@@H]12 [BA, betulinic acid, reference compound]", "Selectivity index (SI) A2780": 1.49}
{"molecule": "C=C(C)C1CC[C@]2(C(=O)NCCOCCN)CC[C@]3(C)C(CCC4[C@@]5(C)CC[C@H](O)C(C)(C)C5CC[C@]43C)C12 (stereo partly shown)", "Selectivity index (SI) A2780": 0.80}
{"molecule": "C[C@@H]1CC[C@]2(C(=O)NCCN3CCCCC3)CC[C@]3(C)C(=CCC4[C@@]5(C)CC[C@H](O)C(C)(C)C5CC[C@]43C)C2[C@H]1C (stereo partly shown)", "Selectivity index (SI) A2780": 0.46}
{"molecule": "CC(=O)O[C@H]1CC[C@@]2(C)C(CC[C@]3(C)C2CC=C2C4[C@@H](C)[C@H](C)CC[C@]4(C(=O)NCCN4CCCC4)CC[C@]23C)C1(C)C (stereo partly shown)", "Selectivity index (SI) A2780": 1.06}
{"molecule": "C=C(C)C1CC[C@]2(C(=O)NCCOCCN)CC[C@]3(C)C(CCC4[C@@]5(C)CC[C@H](OC(C)=O)C(C)(C)C5CC[C@]43C)C12 (stereo partly shown)", "Selectivity index (SI) A2780": 0.67}
